Biological target: FBW7/Skp1 (Homo sapiens, UniProt Q969H0)
Sequence (Q969H0 whole entry, species assumed): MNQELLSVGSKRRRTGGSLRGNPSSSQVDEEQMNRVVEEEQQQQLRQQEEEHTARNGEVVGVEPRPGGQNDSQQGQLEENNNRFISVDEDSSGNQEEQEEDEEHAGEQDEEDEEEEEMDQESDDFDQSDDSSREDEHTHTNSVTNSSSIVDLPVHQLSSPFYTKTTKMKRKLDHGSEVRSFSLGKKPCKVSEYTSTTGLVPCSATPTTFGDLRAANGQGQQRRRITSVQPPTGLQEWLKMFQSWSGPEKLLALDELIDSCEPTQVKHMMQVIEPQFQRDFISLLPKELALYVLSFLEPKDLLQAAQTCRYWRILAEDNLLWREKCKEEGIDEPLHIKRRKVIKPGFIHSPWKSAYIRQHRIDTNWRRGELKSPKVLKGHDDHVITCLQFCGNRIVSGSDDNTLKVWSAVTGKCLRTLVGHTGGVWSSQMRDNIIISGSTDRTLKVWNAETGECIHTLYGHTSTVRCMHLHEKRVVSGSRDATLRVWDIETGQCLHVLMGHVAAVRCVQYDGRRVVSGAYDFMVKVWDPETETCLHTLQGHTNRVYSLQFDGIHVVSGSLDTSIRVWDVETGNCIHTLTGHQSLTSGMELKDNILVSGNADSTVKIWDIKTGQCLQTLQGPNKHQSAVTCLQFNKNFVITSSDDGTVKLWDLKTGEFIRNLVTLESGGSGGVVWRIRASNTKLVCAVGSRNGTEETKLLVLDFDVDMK
Sequence (P63208 whole entry partner, species assumed): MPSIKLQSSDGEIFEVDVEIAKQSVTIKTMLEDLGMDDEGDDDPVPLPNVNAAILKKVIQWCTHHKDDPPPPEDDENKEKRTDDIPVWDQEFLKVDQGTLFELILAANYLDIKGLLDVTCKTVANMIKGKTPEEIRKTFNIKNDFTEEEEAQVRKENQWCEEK
Sequence (Q13616 whole entry partner, species assumed): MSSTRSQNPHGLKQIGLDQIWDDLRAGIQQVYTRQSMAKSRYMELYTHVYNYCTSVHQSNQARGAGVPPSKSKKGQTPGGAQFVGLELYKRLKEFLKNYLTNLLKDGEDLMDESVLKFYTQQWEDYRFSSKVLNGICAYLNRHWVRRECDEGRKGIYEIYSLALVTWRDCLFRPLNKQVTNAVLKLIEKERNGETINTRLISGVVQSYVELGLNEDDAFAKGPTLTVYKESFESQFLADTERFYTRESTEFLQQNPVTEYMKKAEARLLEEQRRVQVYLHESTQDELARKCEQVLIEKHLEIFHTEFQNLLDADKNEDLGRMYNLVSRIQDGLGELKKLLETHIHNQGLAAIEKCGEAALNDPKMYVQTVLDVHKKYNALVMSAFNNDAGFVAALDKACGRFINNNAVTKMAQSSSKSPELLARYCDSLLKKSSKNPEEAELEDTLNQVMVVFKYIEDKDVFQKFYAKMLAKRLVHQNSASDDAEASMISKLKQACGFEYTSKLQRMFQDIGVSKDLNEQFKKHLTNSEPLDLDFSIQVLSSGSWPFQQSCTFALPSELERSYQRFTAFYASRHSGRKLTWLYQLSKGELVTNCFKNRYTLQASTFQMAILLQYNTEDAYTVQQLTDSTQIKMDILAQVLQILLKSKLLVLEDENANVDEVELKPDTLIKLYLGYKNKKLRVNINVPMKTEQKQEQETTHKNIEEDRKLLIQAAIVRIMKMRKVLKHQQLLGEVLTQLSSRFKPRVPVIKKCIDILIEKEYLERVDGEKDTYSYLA
Sequence (P62877 whole entry partner, species assumed): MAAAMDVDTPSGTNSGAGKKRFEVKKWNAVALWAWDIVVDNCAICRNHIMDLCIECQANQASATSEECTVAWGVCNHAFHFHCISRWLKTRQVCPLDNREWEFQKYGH
Experiment: Selectivity assay vs other E3s: Fbw7
Format: biochemical
Conditions: read-out: % Inhibition Fbw7 @ 10 μM
Non-standard residues stand in square brackets, D forms with d. Residues, ends and D or L forms follow the SMILES beside them. *: point of attachment. Phe(3-Cl) = N[C@@H](Cc1cccc(Cl)c1)C(=O)O; Phe(3-F) = N[C@@H](Cc1cccc(F)c1)C(=O)O; NMeE = CN[C@@H](CCC(=O)O)C(=O)O; Tos = Cc1ccc(S(=O)(=O)*)cc1
readout.type: inhibition at 10 µM (%)
Kindly answer with a numeric value in %, unit omitted.

Retrieve inhibition at 10 µM measured for Cc1ccc(S(=O)(=O)N[C@H](CC(=O)O)C(=O)N[C@@H](CCC(=O)O)C(=O)NCC(=O)N[C@@H](Cc2cccc(Cl)c2)C(=O)N[C@@H](Cc2c[nH]c3ccccc23)C(=O)N(C)[C@@H](CCC(=O)O)C(N)=O)cc1 [UBP033, Ts-dEGF(3Cl)WE(Me)-NH2] (Tos-[dD]EG[Phe(3-Cl)]W[NMeE]-NH2) and print it.
7

Then this compound:
Please give the documented inhibition at 10 µM of CC(=O)N[C@H](CC(=O)O)C(=O)N[C@@H](CCC(=O)O)C(=O)NCC(=O)N[C@@H](Cc1cccc(F)c1)C(=O)N[C@@H](Cc1c[nH]c2ccccc12)C(=O)N[C@@H](CCC(=O)O)C(N)=O [UBP017, Ac-dEGF(3F)WE-NH2] (Ac-[dD]EG[Phe(3-F)]WE-NH2)
3

----------
Target: βTrCP (Homo sapiens, UniProt Q9Y297)
Assay: Biotin pull down assay with biotinylated IκB peptide
Format: binding
Conditions: 100 μM compound
Sequence (Q9Y297 whole entry): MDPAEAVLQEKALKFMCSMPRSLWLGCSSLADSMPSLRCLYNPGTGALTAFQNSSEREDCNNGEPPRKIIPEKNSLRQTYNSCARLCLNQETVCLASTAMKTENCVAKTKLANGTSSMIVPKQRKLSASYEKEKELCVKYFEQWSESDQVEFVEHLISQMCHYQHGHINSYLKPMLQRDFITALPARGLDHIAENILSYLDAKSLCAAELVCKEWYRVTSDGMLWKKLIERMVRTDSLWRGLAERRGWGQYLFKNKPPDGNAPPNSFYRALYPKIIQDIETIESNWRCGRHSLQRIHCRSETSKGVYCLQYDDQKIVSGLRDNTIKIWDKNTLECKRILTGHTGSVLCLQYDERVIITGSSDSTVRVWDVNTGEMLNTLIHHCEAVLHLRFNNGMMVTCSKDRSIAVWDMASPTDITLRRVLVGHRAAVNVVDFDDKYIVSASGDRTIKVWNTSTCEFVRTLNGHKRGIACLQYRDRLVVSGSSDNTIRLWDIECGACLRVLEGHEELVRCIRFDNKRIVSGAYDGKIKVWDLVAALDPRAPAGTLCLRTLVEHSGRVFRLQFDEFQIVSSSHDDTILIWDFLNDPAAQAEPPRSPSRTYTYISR
Starred links: 1 amine or outer side, 2 acyl side, 3 side chain; linkers in the order of their positions; H or OH if unused. Non-standard residues stand in square brackets, D forms with d. Residues, ends and D or L forms follow the SMILES beside them. *: point of attachment. Phe(4-NO2) = N[C@@H](Cc1ccc([N+](=O)[O-])cc1)C(=O)O; 2Naphthylsulfonyl = O=S(=O)(c1ccc2ccccc2c1)*; Phe(3-Cl) = N[C@@H](Cc1cccc(Cl)c1)C(=O)O; Phe(3-F) = N[C@@H](Cc1cccc(F)c1)C(=O)O; 1Nal = N[C@@H](Cc1cccc2ccccc12)C(=O)O; NMeE = CN[C@@H](CCC(=O)O)C(=O)O; X1 = CCCCOc1ccc(S(=O)(=O)*)cc1; X2 = COc1ccc(S(=O)(=O)*)cc1OC; Suc = O=C(CCC(=O)[*:2])[*:1]; Tos = Cc1ccc(S(=O)(=O)*)cc1; Bz = O=C(c1ccccc1)*; Moc = COC(=O)*
readout.type: Biotin Pulldown Assay 100 μM

Give the value of Biotin Pulldown Assay 100 μM reported for the following: NC(=O)[C@H](CCC(=O)O)NC(=O)[C@H](Cc1c[nH]c2ccccc12)NC(=O)[C@H](Cc1cccc(F)c1)NC(=O)CNC(=O)[C@H](CCC(=O)O)NC(=O)[C@@H](CC(=O)O)NS(=O)(=O)c1ccc2ccccc2c1 [UBP031, 2-NaphthylSO2-dEGF(3F)WE-NH2] (2Naphthylsulfonyl-[dD]EG[Phe(3-F)]WE-NH2)
inhibits

Please supply the value of reported Biotin Pulldown Assay 100 μM for the item NC(=O)[C@H](CCC(=O)O)NC(=O)[C@H](Cc1cccc2ccccc12)NC(=O)[C@H](Cc1ccc([N+](=O)[O-])cc1)NC(=O)CNC(=O)[C@H](CCC(=O)O)NC(=O)CCC(=O)O [UBP011, Suc-EGF(4NO2)1NalE-NH2] (Suc-EG[Phe(4-NO2)][1Nal]E-NH2)
inhibits

// fetch Biotin Pulldown Assay 100 μM given entry CC(=O)N[C@H](CC(=O)O)C(=O)N[C@@H](CCC(=O)O)C(=O)NCC(=O)N[C@@H](Cc1cccc(F)c1)C(=O)N[C@@H](Cc1c[nH]c2ccccc12)C(=O)N[C@@H](CCC(=O)O)C(N)=O [UBP017, Ac-dEGF(3F)WE-NH2] (Ac-[dD]EG[Phe(3-F)]WE-NH2)
inhibits

Respond only with Biotin Pulldown Assay 100 μM recorded for NC(=O)[C@H](CCC(=O)O)NC(=O)[C@H](Cc1c[nH]c2ccccc12)NC(=O)[C@H](Cc1cccc(F)c1)NC(=O)CNC(=O)[C@H](CCC(=O)O)NC(=O)[C@@H](CC(=O)O)NC(=O)c1ccccc1 [UBP018, Bz-dEGF(3F)WE-NH2] (Bz-[dD]EG[Phe(3-F)]WE-NH2)
inhibits

Using the record for Cc1ccc(S(=O)(=O)N[C@H](CC(=O)O)C(=O)N[C@@H](CCC(=O)O)C(=O)NCC(=O)N[C@@H](Cc2cccc(Cl)c2)C(=O)N[C@@H](Cc2c[nH]c3ccccc23)C(=O)N(C)[C@@H](CCC(=O)O)C(N)=O)cc1 [UBP033, Ts-dEGF(3Cl)WE(Me)-NH2] (Tos-[dD]EG[Phe(3-Cl)]W[NMeE]-NH2) , state its measured Biotin Pulldown Assay 100 μM.
inhibits

Others:
Retrieve Biotin Pulldown Assay 100 μM measured for CCCCOc1ccc(S(=O)(=O)N[C@H](CC(=O)O)C(=O)N[C@@H](CCC(=O)O)C(=O)NCC(=O)N[C@@H](Cc2cccc(F)c2)C(=O)N[C@@H](Cc2c[nH]c3ccccc23)C(=O)N[C@@H](CCC(=O)O)C(N)=O)cc1 [UBP030, 4-(BuO)-PhSO2-dEGF(3F)WE-NH2] (X1-[dD]EG[Phe(3-F)]WE-NH2) and print it.
inhibits

Name the recorded Biotin Pulldown Assay 100 μM of the compound listed here: NC(=O)[C@H](CCC(=O)O)NC(=O)[C@H](Cc1cccc2ccccc12)NC(=O)[C@H](Cc1ccc(O)cc1)NC(=O)CNC(=O)[C@H](CCC(=O)O)NC(=O)CCC(=O)O [UBP009, Suc-EGY1NalE-NH2] (Suc-EGY[1Nal]E-NH2)
inhibits

Report Biotin Pulldown Assay 100 μM, nothing else, for this compound: COc1ccc(S(=O)(=O)N[C@H](CC(=O)O)C(=O)N[C@@H](CCC(=O)O)C(=O)NCC(=O)N[C@@H](Cc2cccc(F)c2)C(=O)N[C@@H](Cc2c[nH]c3ccccc23)C(=O)N[C@@H](CCC(=O)O)C(N)=O)cc1OC [UBP029, 3,4-(MeO)2-PhSO2-dEGF(3F)WE-NH2] (X2-[dD]EG[Phe(3-F)]WE-NH2)
inhibits

Give the reported Biotin Pulldown Assay 100 μM for this compound. COC(=O)N[C@H](CC(=O)O)C(=O)N[C@@H](CCC(=O)O)C(=O)NCC(=O)N[C@@H](Cc1cccc(F)c1)C(=O)N[C@@H](Cc1c[nH]c2ccccc12)C(=O)N[C@@H](CCC(=O)O)C(N)=O [UBP020, MeO(CO)-dEGF(3F)WE-NH2] (Moc-[dD]EG[Phe(3-F)]WE-NH2)
inhibits

----------
Target: βTrCP (Homo sapiens, UniProt Q9Y297)
Assay: Fluorescence polarisation (FP) binding assay with fluorescein-tagged IκB peptide
Conditions: Tables 1, 3, 7, 8; 10 nM fluorescein-tagged IκB peptide; read-out: FP Assay IC50/μM
Sequence (Q9Y297 whole entry, one chain of several): as the sequence (Q9Y297 whole entry) above
Starred links: 1 amine or outer side, 2 acyl side, 3 side chain; linkers in the order of their positions; H or OH if unused. Non-standard residues stand in square brackets, D forms with d. Residues, ends and D or L forms follow the SMILES beside them. *: point of attachment. Phe(4-NO2) = N[C@@H](Cc1ccc([N+](=O)[O-])cc1)C(=O)O; Benzoyl(2-COOH) = O=C(O)c1ccccc1C(=O)*; Phe(3-F) = N[C@@H](Cc1cccc(F)c1)C(=O)O; 1Nal = N[C@@H](Cc1cccc2ccccc12)C(=O)O; pS = N[C@@H](COP(=O)(O)O)C(=O)O; Fumaroyl = O=C(O)/C=C/C(=O)*; Suc = O=C(CCC(=O)[*:2])[*:1]
Label Y when IC50 is strictly below 0.2 µM; otherwise label N.

In plain terms, does NC(=O)[C@H](CCC(=O)O)NC(=O)[C@H](Cc1cccc2ccccc12)NC(=O)[C@H](Cc1ccc([N+](=O)[O-])cc1)NC(=O)CNC(=O)[C@@H](N)CCC(=O)O [EG-F(4NO2)-1Nal-E-NH2] (H-EG[Phe(4-NO2)][1Nal]E-NH2) come in under 0.2 µM for IC50?
N

Does the reported IC50 of NC(=O)[C@H](Cc1ccc([N+](=O)[O-])cc1)NC(=O)[C@H](Cc1cccc(F)c1)NC(=O)CNC(=O)[C@H](CCC(=O)O)NC(=O)CCC(=O)O [Suc-EG-F(3F)-F(4NO2)-NH2] (Suc-EG[Phe(3-F)][Phe(4-NO2)]-NH2) stay below 0.2 µM?
N

Strictly below 0.2 µM: is that where IC50 of CC[C@H](C)[C@H](NC(=O)CNC(=O)[C@H](COP(=O)(O)O)NC(=O)[C@H](CC(=O)O)NC(=O)[C@@H](N)C(C)C)C(=O)N[C@@H](Cc1c[nH]cn1)C(=O)N[C@@H](CO)C(N)=O [VD-pS-GIHS-NH2] (H-VD[pS]GIHS-NH2) sits?
N

Field: below-cutoff. Rule: recorded IC50 strictly less than 0.2 µM. Subject: NC(=O)[C@H](CCC(=O)O)NC(=O)[C@H](Cc1ccc([N+](=O)[O-])cc1)NC(=O)[C@H](Cc1cccc(F)c1)NC(=O)CNC(=O)[C@H](CCC(=O)O)NC(=O)/C=C/C(=O)O [Fum-EG-F(3F)-F(4NO2)-E-NH2] (Fumaroyl-EG[Phe(3-F)][Phe(4-NO2)]E-NH2)
N

Answer whether the compound NC(=O)[C@H](Cc1cccc(F)c1)NC(=O)[C@H](Cc1ccc(O)cc1)NC(=O)CNC(=O)[C@H](CCC(=O)O)NC(=O)CCC(=O)O [Suc-EGY-F(3F)-NH2] (Suc-EGY[Phe(3-F)]-NH2) has IC50 strictly less than 0.2 µM
N

Dear reviewer, please state whether CC[C@H](C)[C@H](NC(=O)CNC(=O)[C@H](C)NC(=O)[C@H](N)CC(=O)O)C(=O)N[C@@H](Cc1ccccc1)C(=O)N[C@@H](CCCNC(=N)N)C(N)=O [dAGIFR-NH2] (H-[dD]AGIFR-NH2) has IC50 strictly beneath 0.2 µM.
N

# TODO verify IC50 < 0.2 µM strictly for this compound: CC[C@H](C)[C@H](NC(=O)CNC(=O)[C@H](C)NC(=O)c1ccccc1C(=O)O)C(=O)N[C@@H](Cc1ccccc1)C(=O)N[C@@H](CCC(=O)O)C(N)=O [Phth-AGIFE-NH2] ({Benzoyl(2-COOH)}-AGIFE-NH2)
N
